# Tested on: HDACs (HeLa cell nuclear extracts)
# assayRemarks: HDAC enzymatic activity, Biomol Color de Lys system
# Format: biochemical
# conditionLabel: 1 hour, 25° C.
Collected IC50 values appear next to each entry.

Solved cases below.
* CC(=O)c1cc(-c2nc(N3CCOCC3)c3sc(CN(C)c4ncc(C(=O)NO)cn4)cc3n2)ccc1N | < 100 nM
* CN(Cc1cc2nc(-c3cccc4[nH]ncc34)nc(N3CCOCC3)c2s1)c1ncc(C(=O)NO)cn1 | < 100 nM
* CN(Cc1cc2nc(-c3cccc4[nH]c(=S)[nH]c34)nc(N3CCOCC3)c2s1)c1ncc(C(=O)NO)cn1 | < 100 nM

Please find the next compound below.
input: Test system HDACs (HeLa cell nuclear extracts); read-out IC50; what value for CN(Cc1cc2nc(-c3cc[nH]c3)nc(N3CCOCC3)c2s1)c1ncc(C(=O)NO)cn1 ?
output: < 100 nM

====

measurementLabel: melting point

Solved cases below.
• CN(Cc1cc2nc(-c3cccnc3)nc(N3CCOCC3)c2s1)c1ncc(C(=O)NO)cn1 [Compound 109] = 160 to 164 °C
• O=C(CCCCCCNCc1cc2nc(-c3cccc4[nH]ncc34)nc(N3CCOCC3)c2s1)NO [Compound 44] = 188 to 190 °C

input: Recorded melting point of CN(Cc1cc2nc(-c3ccccc3)nc(N3CCOCC3)c2s1)c1ncc(C(=O)NO)cn1 [Compound 129] , please.
output: 199 to 200 °C

input: Recorded melting point of CN(Cc1cc2nc(-c3ccc(N)c(F)c3)nc(N3CCOCC3)c2s1)c1ncc(C(=O)NO)cn1 [Compound 276] , please.
output: 203 to 206 °C

input: Recorded melting point of CN(Cc1cc2nc(-c3cccc4[nH]ccc34)nc(N3CCOCC3)c2s1)c1ncc(C(=O)NO)cn1 [Compound 176] , please.
output: 200 to 212 °C

====

# measurementTarget: mTor serine/threonine protein kinase (Homo sapiens, UniProt P42345)
# Construct: FLAG
# assayRemarks: mTor kinase radioisotope assay
# conditionLabel: 70 uM ATP, 40 minutes; read-out: m-TOR IC50
pIC50: −log10 of the molar value.
measurementLabel: pIC50

Solved cases below.
* CN(Cc1cc2nc(-c3cnc(N)nc3)nc(N3CCOCC3)c2s1)c1ncc(C(=O)NO)cn1 | > 7.00
* CNc1ncc(-c2nc(N3CCOCC3)c3sc(CN(C)c4ncc(C(=O)NO)cn4)cc3n2)cn1 | > 7.00
* O=C(NO)c1cnc(N2CCC(CNCc3cc4nc(-c5cccc6[nH]ncc56)nc(N5CCOCC5)c4s3)CC2)nc1 | < 5.00

input: Test system mTor serine/threonine protein kinase (Homo sapiens, UniProt P42345); read-out pIC50; what value for CC(=O)NCc1ccc(-c2nc(N3CCOCC3)c3sc(CN(C)c4ncc(C(=O)NO)cn4)cc3n2)cc1 ?
output: < 5.00

input: Test system mTor serine/threonine protein kinase (Homo sapiens, UniProt P42345); read-out pIC50; what value for O=C(CCCCCNCc1cc2nc(-c3cccc4[nH]ncc34)nc(N3CCOCC3)c2s1)NO ?
output: 5.00 to 6.00

input: Test system mTor serine/threonine protein kinase (Homo sapiens, UniProt P42345); read-out pIC50; what value for CN(Cc1cc2nc(-c3cccc4c3CNC4=O)nc(N3CCOCC3)c2s1)c1ncc(C(=O)NO)cn1 ?
output: < 5.00

input: Test system mTor serine/threonine protein kinase (Homo sapiens, UniProt P42345); read-out pIC50; what value for CNc1ccc(-c2nc(N3CCOCC3)c3sc(CN(C)c4ncc(C(=O)NO)cn4)cc3n2)cn1 ?
output: > 7.00

input: Test system mTor serine/threonine protein kinase (Homo sapiens, UniProt P42345); read-out pIC50; what value for CN(Cc1cc2nc(-c3cccc4[nH]ncc34)nc(N3CCOCC3)c2s1)CC1CCN(c2ncc(C(=O)NO)cn2)CC1 ?
output: 5.00 to 6.00

====

Collected melting point values appear next to each entry.

Solved cases below.
• CS(=O)(=O)N1CCN(Cc2cc3nc(-c4cccc5c4cnn5CCCCC(=O)NO)nc(N4CCOCC4)c3s2)CC1 [Compound 3] = 139 to 143 °C
• CN(C)c1ccc(-c2nc(N3CCOCC3)c3sc(CN(C)c4ncc(C(=O)NO)cn4)cc3n2)cn1 [Compound 114] = 190 to 195 °C
• CS(=O)(=O)N1CCN(Cc2cc3nc(-c4cccc5[nH]ncc45)nc(N4CCN(CCCCCC(=O)NO)CC4)c3s2)CC1 [Compound 31] = 140 to 145 °C

input: Recorded melting point of CN(Cc1cc2nc(-c3cccc4c3CCN4)nc(N3CCOCC3)c2s1)c1ncc(C(=O)NO)cn1 [Compound 177] , please.
output: 146 to 156 °C

====

# Tested on: H2122
# assayRemarks: Cell proliferation assay (CellTiter-Glo)
# Format: cell-based
# conditionLabel: Homo sapiens, NCI-H2122; NSCLC; 72 hours, 0.5% fetal bovine serum; read-out: antiproliferative activity IC50, H2122
pIC50: −log10 of the molar value.
Collected pIC50 values appear next to each entry.

Solved cases below.
• CS(=O)(=O)N1CCN(Cc2cc3nc(-c4cccc5[nH]ncc45)nc(N4CCOCC4)c3s2)CC1 [GDC-0941, reference compound] = 5.00 to 6.00
• CN(Cc1cc2nc(-c3cccc(OCCO)c3)nc(N3CCOCC3)c2s1)c1ncc(C(=O)NO)cn1 = > 8.00
• CNc1ccc(-c2nc(N3CCOCC3)c3sc(CN(C)c4ncc(C(=O)NO)cn4)cc3n2)cn1 = > 8.00

Please find the next compound below.
input: Recorded pIC50 of CN(Cc1cc2nc(-c3ccc(N)cc3)nc(N3CCOCC3)c2s1)c1ncc(C(=O)NO)cn1 , please.
output: > 8.00

====

Collected IC50 values appear next to each entry.
# measurementTarget: PI3Kα (p110α/p85α) (Homo sapiens)
# Construct: GST (N)
# Sequence (P42336 whole entry): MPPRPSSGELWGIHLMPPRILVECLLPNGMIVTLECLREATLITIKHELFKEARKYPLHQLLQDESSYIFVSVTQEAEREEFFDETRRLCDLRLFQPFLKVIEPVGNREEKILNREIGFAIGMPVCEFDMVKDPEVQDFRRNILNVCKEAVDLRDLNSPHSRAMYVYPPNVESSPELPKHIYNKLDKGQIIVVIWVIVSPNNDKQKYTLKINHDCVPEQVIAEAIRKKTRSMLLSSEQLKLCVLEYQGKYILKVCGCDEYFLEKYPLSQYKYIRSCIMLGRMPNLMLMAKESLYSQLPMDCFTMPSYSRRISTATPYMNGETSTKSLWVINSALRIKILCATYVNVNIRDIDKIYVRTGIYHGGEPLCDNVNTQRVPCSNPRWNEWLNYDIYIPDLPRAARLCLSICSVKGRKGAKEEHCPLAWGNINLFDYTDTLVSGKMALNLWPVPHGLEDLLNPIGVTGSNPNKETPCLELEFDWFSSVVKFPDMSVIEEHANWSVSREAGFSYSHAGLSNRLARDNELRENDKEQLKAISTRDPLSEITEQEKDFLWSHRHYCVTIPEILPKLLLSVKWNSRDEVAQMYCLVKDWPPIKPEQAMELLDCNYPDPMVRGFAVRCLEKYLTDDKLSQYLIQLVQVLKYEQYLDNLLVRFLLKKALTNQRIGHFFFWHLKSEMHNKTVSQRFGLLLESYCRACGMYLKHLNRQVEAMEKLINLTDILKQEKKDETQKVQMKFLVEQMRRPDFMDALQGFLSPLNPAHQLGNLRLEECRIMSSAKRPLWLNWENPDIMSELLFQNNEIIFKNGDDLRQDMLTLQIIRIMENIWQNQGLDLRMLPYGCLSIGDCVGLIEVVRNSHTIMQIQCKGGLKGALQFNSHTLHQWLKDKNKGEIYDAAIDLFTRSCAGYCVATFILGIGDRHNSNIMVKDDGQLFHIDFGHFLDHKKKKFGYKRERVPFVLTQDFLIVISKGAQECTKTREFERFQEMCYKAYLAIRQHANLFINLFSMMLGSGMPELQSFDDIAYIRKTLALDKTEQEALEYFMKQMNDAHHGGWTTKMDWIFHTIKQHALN
# Sequence (P27986 whole entry partner): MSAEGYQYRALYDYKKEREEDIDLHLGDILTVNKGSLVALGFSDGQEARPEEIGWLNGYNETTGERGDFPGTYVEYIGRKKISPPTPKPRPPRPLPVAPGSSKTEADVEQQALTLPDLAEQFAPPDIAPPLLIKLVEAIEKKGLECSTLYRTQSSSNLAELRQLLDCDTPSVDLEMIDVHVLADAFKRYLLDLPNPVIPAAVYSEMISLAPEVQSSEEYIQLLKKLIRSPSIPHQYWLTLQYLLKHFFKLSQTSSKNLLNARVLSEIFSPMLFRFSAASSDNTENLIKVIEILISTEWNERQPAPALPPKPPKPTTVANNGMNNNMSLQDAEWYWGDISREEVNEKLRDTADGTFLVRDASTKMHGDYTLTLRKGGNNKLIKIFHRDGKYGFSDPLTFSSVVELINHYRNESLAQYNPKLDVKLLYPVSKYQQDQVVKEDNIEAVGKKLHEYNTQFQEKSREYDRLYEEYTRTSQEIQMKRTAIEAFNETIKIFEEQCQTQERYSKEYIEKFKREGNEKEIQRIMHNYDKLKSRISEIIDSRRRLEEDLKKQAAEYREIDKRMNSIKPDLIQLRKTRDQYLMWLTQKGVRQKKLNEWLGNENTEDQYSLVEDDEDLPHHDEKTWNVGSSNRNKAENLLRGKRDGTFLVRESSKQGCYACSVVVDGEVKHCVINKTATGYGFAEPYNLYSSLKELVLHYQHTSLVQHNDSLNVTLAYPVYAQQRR
# assayRemarks: PI3Kα ADP-Glo assay
# conditionLabel: 20 μM PIP2, 10 μM ATP, 30 minutes

Solved cases below.
* CN(C)c1cccc(-c2nc(N3CCOCC3)c3sc(CN(C)c4ncc(C(=O)NO)cn4)cc3n2)c1 [Compound 108] | 1000 to 10000 nM
* CN(Cc1cc2nc(-c3cnc(CN)nc3)nc(N3CCOCC3)c2s1)c1ncc(C(=O)NO)cn1 [Compound 124] | < 100 nM
* CNc1ccc(-c2nc(N3CCOCC3)c3sc(C(C)N(C)c4ncc(C(=O)NO)cn4)cc3n2)cn1 (stereo not shown) [Compound 237] | < 100 nM

input: Recorded IC50 of CN(Cc1cc2nc(-c3ccc4[nH]c(C(F)(F)F)nc4c3)nc(N3CCOCC3)c2s1)c1ncc(C(=O)NO)cn1 [Compound 318] , please.
output: < 100 nM

====

Collected IC50 values appear next to each entry.
# Tested on: WiDr
# assayRemarks: Cell proliferation assay (CellTiter-Glo)
# Assay type: cell-based
# conditionLabel: Homo sapiens, Colon, 72 hours, 0.5% fetal bovine serum, read-out: antiproliferative activity IC50, WiDr

Solved cases below.
• CNc1ccc(-c2nc(N3CCOCC3)c3sc(CN(C)c4ncc(C(=O)NO)cn4)cc3n2)cn1 = 10 to 100 nM
• Cn1c(=O)n(-c2ccc(C(C)(C)C#N)cc2)c2c3cc(-c4cnc5ccccc5c4)ccc3ncc21 [BEZ-235, reference compound] = 1000 to 10000 nM
• COc1ccc(-c2nc(N3CCOCC3)c3sc(CN(C)c4ncc(C(=O)NO)cn4)cc3n2)cn1 = 10 to 100 nM

input: Recorded IC50 of Cc1nc2ccc(-c3nc(N4CCOCC4)c4sc(CN(C)c5ncc(C(=O)NO)cn5)cc4n3)cc2[nH]1 , please.
output: 10 to 100 nM

====

Collected pIC50 values appear next to each entry.
# Test system: HDACs (HeLa cell nuclear extracts)
# assayRemarks: HDAC enzymatic activity, Biomol Color de Lys system
# Format: biochemical
# conditionLabel: 1 hour, 25° C.
# Method: (E) an In Vitro Assay which Determines the Ability of a Test Compound to Inhibit HDAC Enzymatic Activity. HDAC inhibitory activity was assessed using the Biomol Color de Lys system (AK-500, Biomol, Plymouth Meeting, Pa.). […] Relative enzyme activity was measured in the WALLAC Victor II 1420 microplate reader as fluorescence intensity (excitation: 350-380 nm; emission: 440-460 nm). Data were analyzed using GraphPad Prism (v4.0a) with a sigmoidal dose response curve fitting for IC50 calculation.
pIC50: −log10 of the molar value.

* CC(=O)Nc1cccc(-c2nc(N3CCOCC3)c3sc(CN(C)c4ncc(C(=O)NO)cn4)cc3n2)c1 | > 7.00

input: Test system HDACs (HeLa cell nuclear extracts); read-out pIC50; what value for CNc1ccc(-c2nc(N3CCOCC3)c3sc(N(C)c4ncc(C(=O)NO)cn4)cc3n2)cn1 ?
output: 6.00 to 7.00

input: Test system HDACs (HeLa cell nuclear extracts); read-out pIC50; what value for O=C(CCCCCNc1cc2nc(-c3cccc4[nH]ncc34)nc(N3CCOCC3)c2s1)NO ?
output: > 7.00

input: Test system HDACs (HeLa cell nuclear extracts); read-out pIC50; what value for Nc1ncc(-c2nc(N3CCOCC3)c3sc(NCCCCCC(=O)NO)cc3n2)cn1 ?
output: > 7.00
